The origin of these recorded values is patent US9321742B2.

- System: HCT116 cells
- experiment-notes: Measurement of effect of inhibiting cancer cell proliferation (MTT)
- Type: cell-based
- condition-context: Homo sapiens, HCT-116, 48 hours
- From the text: HCT116 cells derived from human colorectal cancer (commercially available from the Korean Cell Line Bank) were used, and the effect of inhibiting cancer cell proliferation of the biguanide derivative was confirmed by measuring the concentration value (cell growth inhibition concentration, GIC50) at which cell growth was inhibited by 50% using a 3-(4,5-dimethylthiazol-2-yl)-2,5-[…] bromide (MTT) reagent. […]
Reported values of GI50 for individual entries
Numeric only. Scale: µM

- molecule: "Cl.N=C(NCc1ccc(F)c(C(F)(F)F)c1)NC(=N)N1CCCCC1 [Example 44, hydrochloride]"
  unit-info: "µM"
  data-value: 15.2

Next molecule, GI50 to be filled in.
Lookup: What value of GI50 has been reported for the following molecule? Cl.N=C(NCc1ccc(F)c(OC(F)(F)F)c1)NC(=N)N1CCCCC1 [Example 48, hydrochloride]
Found: 13.4
